Origin of measurements: patent US10398142B2

- Tested on: CA-MRSA (USA300-0114) biofilms
- assay_details: Minimum biofilm eradication concentration (MBEC), regrowth assay
- Type: cell-based, Staphylococcus aureus
- settings: Table 5; USA300-0114
observed_property: MBEC CA-MRSA (µM)

compound | observed_property | operator_symbol | observed_measurement
CCCCCCCCCCCC[n+]1ccc(-c2ccc[n+](CCCCCCCCCCCC)c2)cc1.[Br-].[Br-] [PMQ-12,12] | MBEC CA-MRSA | = | 150
CCCCCCCCCCCC[N+](C)(C)CC[N+](C)(C)CC[N+](C)(C)CCCCCCCCCCCC.[Br-].[Br-].[I-] [12,2,1,2,12] | MBEC CA-MRSA | ≥ | 200
CCCCCCCCCC[N+](C)(C)CCCCCCCCCC.[Cl-] [10,10, reference compound] | MBEC CA-MRSA | ≥ | 200
CCCCCCCCCC[N+](C)(C)CCC[N+](C)(CC)CCC[N+](C)(C)CCCCCCCCCC [10,3,2,3,10] | MBEC CA-MRSA | = | 150
